Reported viability, T/C values follow for various molecules
# Tested on: SW1271 complex spheroids with HUVEC/MSC, growth, % test/control
# PROTOCOL SUMMARY: Anticancer human tumor SW1271 cell line growth inhibition [AhR];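 also: spheroids exposed to agents for 7 days before readout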
# EXPERIMENTAL PARAMETERS: second compound 0.316 µM; first compound 0.00316 µM; stronger effect = lower value
# value in %; strip the unit string

Previously resolved entries follow.
1. Cn1ncnc1C1c2n[nH]c(=O)c3cc(F)cc(c23)NC1c1ccc(F)cc1 (stereo not drawn) + Cc1cncc(-c2nc(NCCc3c[nH]c4ccccc34)c3ncn(C(C)C)c3n2)c1: 88.6
2. CC[C@@]1(O)C(=O)OCc2c1cc1n(c2=O)Cc2cc3c(CN(C)C)c(O)ccc3nc2-1 + CC(CO)NC(=O)c1cc(-c2ccc(Cl)cc2)nn(-c2cnn(C)c2)c1=O: 91.1

Please examine the following record next.
-- ask Param request: viability, T/C | system SW1271 complex spheroids with HUVEC/MSC, growth, % test/control | item CC1COCCN1c1cc(-c2ccnn2C)c2ccnc(-c3ccn[nH]3)c2n1 (stereo not drawn) + CC(CO)NC(=O)c1cc(-c2ccc(Cl)cc2)nn(-c2cnn(C)c2)c1=O
-- reply 92.5

====

# Tested on: SW1271 complex spheroids with HUVEC/MSC, growth, % test/control
# PROTOCOL SUMMARY: Anticancer human tumor SW1271 cell line growth inhibition [AhR];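 also: spheroids exposed to agents for 7 days before readout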
# EXPERIMENTAL PARAMETERS: curve of compound
# Excerpt: Multicellular complex tumor spheroid response to aryl hydrocarbon receptor antagonists in combination with a variety of drugs and investigational agents in selected tumor cell lines […] Compounds. […] If the clinical Cmax for an agent had not been determined, the highest concentration tested was 10 microM (Table 1). […]
MEASURED PARAMETER: IC50

Known IC50 results, listed for orientation:
1) CC1(C)CCC(CN2CCN(c3ccc(C(=O)NS(=O)(=O)c4ccc(NCC5CCOCC5)c([N+](=O)[O-])c4)c(Oc4cnc5[nH]ccc5c4)c3)CC2)=C(c2ccc(Cl)cc2)C1: > 10 µM
2) O=C(c1cc(Cc2n[nH]c(=O)c3ccccc23)ccc1F)N1CCN(C(=O)C2CC2)CC1: > 10 µM

Now examine the next entry.
-- ask Identify measured IC50 associated with `CCN(c1cc(-c2ccc(CN3CCOCC3)cc2)cc(C(=O)NCc2c(C)cc(C)[nH]c2=O)c1C)C1CCOCC1`
-- reply > 3 µM

====

# Test system: SW1271 complex spheroids with HUVEC/MSC, growth, % test/control
# PROTOCOL SUMMARY: Anticancer human tumor SW1271 cell line growth inhibition [AhR];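 also: spheroids exposed to agents for 7 days before readout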
# EXPERIMENTAL PARAMETERS: second compound 3.16 µM; first compound 10 µM; stronger effect = lower value
Threshold 40%. viability, T/C below it: criterion met. viability, T/C at it or above: criterion not met.

Check out these entries, answers already filled in.
1) NS(=O)(=O)OCC1CC(n2ccc3c(NC4CCc5ccccc54)ncnc32)CC1O (stereo not given) + Cc1cncc(-c2nc(NCCc3c[nH]c4ccccc34)c3ncn(C(C)C)c3n2)c1: criterion not met
2) COc1ccc([C@@H](O)c2cc(-c3ncnc4cc(N5CCOCC5)ccc34)c(F)cc2Cl)nn1 + Cc1cncc(-c2nc(NCCc3c[nH]c4ccccc34)c3ncn(C(C)C)c3n2)c1: criterion not met
3) Nc1ccccc1NC(=O)c1ccc(CNC(=O)OCc2cccnc2)cc1 + Cc1ccccc1N=Nc1ccc(NC(=O)c2ccnn2C)c(C)c1: criterion met
4) COc1cc(C2c3cc4c(cc3C(OC3OC5COC(C)OC5C(O)C3O)C3COC(=O)C23)OCO4)cc(OC)c1O (stereo not given) + CC(CO)NC(=O)c1cc(-c2ccc(Cl)cc2)nn(-c2cnn(C)c2)c1=O: criterion not met

-- ask Field: below-cutoff. Rule: recorded viability, T/C strictly less than 40%. Subject: O=C(C=Cc1cccc(S(=O)(=O)Nc2ccccc2)c1)NO + Cc1ccccc1N=Nc1ccc(NC(=O)c2ccnn2C)c(C)c1
-- reply criterion met

====

Each item that follows carries a reported viability, T/C.
# Test system: SW1271 complex spheroids with HUVEC/MSC, growth, % test/control
# PROTOCOL SUMMARY: Anticancer human tumor SW1271 cell line growth inhibition [AhR];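 also: spheroids exposed to agents for 7 days before readout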
# EXPERIMENTAL PARAMETERS: second compound 0.1 µM; first compound 10 µM; stronger effect = lower value
Reply numerically in %, unit not repeated.

// known answers, use as guide
1) COc1cc(Nc2ncc3c(n2)-c2ccc(Cl)cc2C(c2c(F)cccc2OC)=NC3)ccc1C(=O)O + CC(CO)NC(=O)c1cc(-c2ccc(Cl)cc2)nn(-c2cnn(C)c2)c1=O: 44
2) CC(C)c1c(-c2ccccc2)nc2c(C#N)c[nH]n2c1=O + CC(CO)NC(=O)c1cc(-c2ccc(Cl)cc2)nn(-c2cnn(C)c2)c1=O: 121

Now turn to the next compound.
-- ask Tell me measured viability, T/C for O=C(C=Cc1cccc(S(=O)(=O)Nc2ccccc2)c1)NO + Cc1ccccc1N=Nc1ccc(NC(=O)c2ccnn2C)c(C)c1 please.
-- reply 17.8

====

# System: SW1271 complex spheroids with HUVEC/MSC, growth, % test/control
# PROTOCOL SUMMARY: Anticancer human tumor SW1271 cell line growth inhibition [AhR];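 also: spheroids exposed to agents for 7 days before readout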
# EXPERIMENTAL PARAMETERS: second compound 10 µM; first compound 0.0316 µM; stronger effect = lower value
MEASURED PARAMETER: viability, T/C (%)
The reply should be a number in %, with the unit left off.

Sample answers from the record:
1. Nc1ccccc1NC(=O)c1ccc(CNC(=O)OCc2cccnc2)cc1 + CC(CO)NC(=O)c1cc(-c2ccc(Cl)cc2)nn(-c2cnn(C)c2)c1=O: 70.2
2. CC(C)c1c(-c2ccccc2)nc2c(C#N)c[nH]n2c1=O + CC(CO)NC(=O)c1cc(-c2ccc(Cl)cc2)nn(-c2cnn(C)c2)c1=O: 71.8

-- ask Enter viability, T/C (test system SW1271 complex spheroids with HUVEC/MSC, growth, % test/control) for CC1COCCN1c1cc(-c2ccnn2C)c2ccnc(-c3ccn[nH]3)c2n1 (stereo not drawn) + CC(CO)NC(=O)c1cc(-c2ccc(Cl)cc2)nn(-c2cnn(C)c2)c1=O
-- reply 68.5

====

# Tested on: SW1271 complex spheroids with HUVEC/MSC, growth, % test/control
# PROTOCOL SUMMARY: Anticancer human tumor SW1271 cell line growth inhibition [AhR];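 also: spheroids exposed to agents for 7 days before readout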
# EXPERIMENTAL PARAMETERS: second compound 0.316 µM; first compound 0.00949 µM; stronger effect = lower value
MEASURED PARAMETER: viability, T/C (%)
Answer in %, number only, no unit symbol.

1) CCc1c2c(nc3ccc(O)cc13)-c1cc3c(c(=O)n1C2)COC(=O)[C@]3(O)CC + CC(CO)NC(=O)c1cc(-c2ccc(Cl)cc2)nn(-c2cnn(C)c2)c1=O: 67.9

-- ask Determine from records and report viability, T/C for CC(C)CC(NC(=O)C(Cc1ccccc1)NC(=O)c1cnccn1)B(O)O (stereo not drawn) + Cc1cncc(-c2nc(NCCc3c[nH]c4ccccc34)c3ncn(C(C)C)c3n2)c1
-- reply 11.3

-- ask Supply viability, T/C value. Item: CCN(c1cc(-c2ccc(CN3CCOCC3)cc2)cc(C(=O)NCc2c(C)cc(C)[nH]c2=O)c1C)C1CCOCC1 + Cc1cncc(-c2nc(NCCc3c[nH]c4ccccc34)c3ncn(C(C)C)c3n2)c1
-- reply 99

====

Parameter viability, T/C: see the listing below.
# Tested on: SW1271 complex spheroids with HUVEC/MSC, growth, % test/control
# PROTOCOL SUMMARY: Anticancer human tumor SW1271 cell line growth inhibition [AhR];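 also: spheroids exposed to agents for 7 days before readout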
# EXPERIMENTAL PARAMETERS: second compound 0.316 µM; first compound 0.0316 µM; stronger effect = lower value
# Description: Multicellular complex tumor spheroid response to aryl hydrocarbon receptor antagonists in combination with a variety of drugs and investigational agents in selected tumor cell lines […] Compounds. […] If the clinical Cmax for an agent had not been determined, the highest concentration tested was 10 microM (Table 1). […]

1) COc1cc(Nc2ncc3c(n2)-c2ccc(Cl)cc2C(c2c(F)cccc2OC)=NC3)ccc1C(=O)O + Cc1cncc(-c2nc(NCCc3c[nH]c4ccccc34)c3ncn(C(C)C)c3n2)c1: 91%
2) Cn1ncnc1C1c2n[nH]c(=O)c3cc(F)cc(c23)NC1c1ccc(F)cc1 (centres undefined) + Cc1ccccc1N=Nc1ccc(NC(=O)c2ccnn2C)c(C)c1: 121%
3) NS(=O)(=O)OCC1CC(n2ccc3c(NC4CCc5ccccc54)ncnc32)CC1O (centres undefined) + CC(CO)NC(=O)c1cc(-c2ccc(Cl)cc2)nn(-c2cnn(C)c2)c1=O: 127%
4) COc1cc(C2c3cc4c(cc3C(OC3OC5COC(C)OC5C(O)C3O)C3COC(=O)C23)OCO4)cc(OC)c1O (centres undefined) + Cc1cncc(-c2nc(NCCc3c[nH]c4ccccc34)c3ncn(C(C)C)c3n2)c1: 86.1%
5) CC1COCCN1c1cc(-c2ccnn2C)c2ccnc(-c3ccn[nH]3)c2n1 (centres undefined) + Cc1cncc(-c2nc(NCCc3c[nH]c4ccccc34)c3ncn(C(C)C)c3n2)c1: 70.4%
6) CC1COCCN1c1cc(-c2ccnn2C)c2ccnc(-c3ccn[nH]3)c2n1 (centres undefined) + CC(CO)NC(=O)c1cc(-c2ccc(Cl)cc2)nn(-c2cnn(C)c2)c1=O: 81.7%
7) CC[C@@]1(O)C(=O)OCc2c1cc1n(c2=O)Cc2cc3c(CN(C)C)c(O)ccc3nc2-1 + Cc1cncc(-c2nc(NCCc3c[nH]c4ccccc34)c3ncn(C(C)C)c3n2)c1: 102%
8) CC1(C)CCC(CN2CCN(c3ccc(C(=O)NS(=O)(=O)c4ccc(NCC5CCOCC5)c([N+](=O)[O-])c4)c(Oc4cnc5[nH]ccc5c4)c3)CC2)=C(c2ccc(Cl)cc2)C1 + Cc1cncc(-c2nc(NCCc3c[nH]c4ccccc34)c3ncn(C(C)C)c3n2)c1: 95%

-- ask Tell me viability, T/C reported for Nc1ccn(C2OC(CO)C(O)C2(F)F)c(=O)n1 (centres undefined) + CC(CO)NC(=O)c1cc(-c2ccc(Cl)cc2)nn(-c2cnn(C)c2)c1=O
-- reply 56.5%
